# assay-method-text: chemical genetic growth profiling, strain panel (AID 1159580);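 note: tested at 20 µM; growth read once vehicle control cultures reached saturation at 30 °C; 1 = growth at the plate median or of vehicle wells; lower values mean less growth of the strain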
# condition-label: S. cerevisiae deletion strains, growth OD, locus YCL029C, strain bik1, stronger effect = lower value
Out of some 5,500 compounds screened, about 2,000 (36%) were called active. Not shown: some 18% with an inconclusive outcome. The list shows a part of the results.
Please go through the items and note down their normalized growth.

### Prompt Which normalized growth reading was recorded for the molecule O=C1c2c(O)cccc2Cc2cccc(O)c21 ?
### Response 0.992 (inactive)

### Prompt Moving on to the next molecule: OC(CCN1CCCCC1)(c1ccccc1)C1CCCCC1 (stereo not drawn)
### Response 1 (inactive)

### Prompt Next molecule: C[C@@H]1OC(O[C@H]2C(O[C@H]3CC[C@@]4(C)C(CC[C@]5(C)C4CC=C4C6CC(C)(C)CC[C@]6(C(=O)O)CC[C@]45C)[C@]3(C)CO)OC[C@H](O)[C@@H]2O)[C@H](O)[C@H](O)[C@H]1O (stereo partly drawn)
### Response 0.0636 (active)

### Prompt Then this molecule: CC(=O)OC1CC[C@@]2(C)C(CC[C@]3(C)C2CCC2C4CC(C)(C)CCC4(C(=O)O)CC[C@]23C)C1(C)C (stereo partly drawn)
### Response 0.968 (inactive)

### Prompt Moving on to Nc1ccccc1C(=O)CC(N)C(=O)O (stereo not drawn)
### Response 0.968 (inactive)

For each of the molecules below, state normalized growth.
1. COc1ccc2c(c1)c(CC(=O)O)c(C)n2C(=O)c1ccc(Cl)cc1
2. COc1ccc2c3c([nH]c2c1)C(C)=NCC3
3. O=C(O)/C=C1\CCCc2ccccc2C1O (stereo not drawn)
4. COC(=O)Nc1nc2ccc(Sc3ccccc3)cc2[nH]1
5. COc1cc(N)c(Cl)cc1C(=O)NC1CCN(Cc2ccccc2)CC1
6. CC(C)(Oc1ccc(CCNC(=O)c2ccc(Cl)cc2)cc1)C(=O)O
7. CCOP(=S)(OCC)Oc1nc(Cl)c(Cl)cc1Cl
8. CC(=O)OC1CC(OC(C)=O)C2(C)C(CC(OC(C)=O)C3(C)C4=CC(=O)OC(=O)C4(C)CCC32)C1(C)C (stereo not drawn)

### Response
1: 0.988 (inactive); 2: 0.984 (inactive); 3: 0.982 (inactive); 4: 0.826 (active); 5: 0.962 (inactive); 6: 1.02 (inactive); 7: 0.99 (inactive); 8: 1 (inactive)

Give normalized growth for each listed item.
1. CC(=O)NC(C(=O)O)C(C)(C)SN=O (stereo not drawn)
2. Nc1c2ccccc2nc2ccccc12 (tested in a mixture with another compound)
3. COC(=O)C[C@H]1C(C)(C)C2(O)OC34CC2C(=O)[C@]1(C)C3CC[C@]1(C)C4=CC(=O)O[C@H]1c1ccoc1 (stereo partly drawn)
4. Cc1cc(O)c2c(c1)Cc1cccc(O)c1C2=O
5. C[C@@H]1OC(O[C@H]2[C@H](O)[C@@H](O)[C@H](OC[C@H]3O[C@@H](OC(=O)[C@]45CCC(C)(C)CC4C4=CCC6[C@@]7(C)CC[C@H](OC8OC[C@H](O)[C@H](O)[C@H]8OC8O[C@@H](C)[C@H](O)[C@@H](O)[C@H]8O)[C@@](C)(CO)C7CC[C@@]6(C)[C@]4(C)CC5)[C@H](O)[C@@H](O)[C@@H]3O)O[C@@H]2CO)[C@H](O)[C@H](O)[C@H]1O (stereo partly drawn)

### Response
1: 0.981 (inactive); 2: 0.485 (active); 3: 1.01 (inactive); 4: 1.01 (inactive); 5: 0.985 (inactive)
